- Test system: U251 CNS
- assay summary: NCI-60 one-dose screen, 48 h
- run conditions: 10 µM unless noted
The panel holds about 83,000 compounds, 20% with a hit somewhere; the sample as a whole holds those more often. The source made the active and inactive calls. Rule for the calls: active = growth percent below 10; inactive = the rest.
Outcome (select one): true for active, false for inactive

compound	group label
O=C1CC(c2ccc3c(c2)OCO3)Nc2cc3c(cc21)OCO3 (centres undefined)	true
NS(=O)(=O)Oc1ccc(NC(=O)C23CC4CC(CC(C4)C2)C3)cc1Cl	false
C[C@@H]1CC[C@@H]2[C@@H]1[C@H](OC(=O)/C=C/c1ccccc1)[C@]1(CCCOCCOCCOCCOC(=O)CCCC[C@@H]3SC[C@@H]4NC(=O)N[C@@H]43)C[C@@H](OC(=O)CO)[C@@]2(C)O1	false

QUERY: How did this test come out for "Cc1nc(Nc2cccc(NC(=O)Nc3ccc(Cl)cc3)c2)c2ccccc2n1" ?
RESULT: false
